Measured combination Emax by item
System: MDA-MB-361 (Breast Carcinoma)
assay_details: combination Emax (second highest fraction inhibited in the dose matrix, 72 h); higher = more inhibition; extreme values may be limits of the assay
No unit in the answer, please; the number alone is enough.

get_value(item= C=CCn1c(=O)c2cnc(Nc3ccc(N4CCN(C)CC4)cc3)nc2n1-c1cccc(C(C)(C)O)n1 [AZD1775] + C1CN(CCC1(C(=O)N[C@@H](CCO)C2=CC=C(C=C2)Cl)N)C3=NC=NC4=C3C=CN4 [Capivasertib] (first compound max 3 µM, partner max 3 µM) , readout=combination Emax) returns 0.851

Lab note: measured combination Emax of COc1cccc(OCCCN)c1-c1cc(Nc2cnc(C#N)cn2)n[nH]1 [Prexasertib] + CCc1c2c(nc3ccc(O)cc13)-c1cc3c(c(=O)n1C2)COC(=O)[C@]3(O)CC [SN-38] (first compound max 1 µM, 7x7, partner max 0.3 µM) was 0.913

Continuing:
Record NC1(C(=O)N[C@@H](CCO)c2ccc(Cl)cc2)CCN(c2ncnc3[nH]ccc23)CC1 [Capivasertib] + CC(=O)c1c(C)c2cnc(Nc3ccc(N4CCNCC4)cn3)nc2n(C2CCCC2)c1=O [Palbociclib] (first compound max 10 µM, 7x7, partner max 10 µM) . Reported combination Emax: 0.546

response.value for COc1nnc2ccc(N3CCC(c4ccc(OCCN5CCN(C)C(=O)[C@H]5C)cc4)CC3)nn12 [AZD5153] + Cn1cnc2c(F)c(Nc3ccc(Br)cc3Cl)c(C(=O)NOCCO)cc21 [Selumetinib] (first compound max 1 µM, 7x7, partner max 10 µM) (field: combination Emax) = 0.642

* * *

Test system: Daoy (Other Solid Carcinomas)
assay_details: combination Emax (second highest fraction inhibited in the dose matrix, 72 h); higher = more inhibition; extreme values may be limits of the assay
Measured combination Emax, listed per entry.
# answer = number (no unit)

In the examples that follow, each entry is paired with its recorded combination Emax.
Documented combination Emax of C=CCn1c(=O)c2cnc(Nc3ccc(N4CCN(C)CC4)cc3)nc2n1-c1cccc(C(C)(C)O)n1 [AZD1775] + C1CN(CCC1(C(=O)N[C@@H](CCO)C2=CC=C(C=C2)Cl)N)C3=NC=NC4=C3C=CN4 [Capivasertib] (first compound max 3 µM, partner max 3 µM) : 0.999

Sure, the documented combination Emax for CN(CCO)CC[C@H](CSc1ccccc1)Nc1ccc(S(=O)(=O)NC(=O)c2ccc(N3CCC([C@@H](O)c4ccccc4-c4ccc(Cl)cc4)CC3)cc2)cc1S(=O)(=O)C(F)(F)F [AZD4320] + C[C@@H](Nc1cc(F)cc(F)c1)c1cc(C(=O)N(C)C)cc2c(=O)cc(N3CCOCC3)oc12 [AZD8186] (first compound max 1 µM, 7x7, partner max 3 µM) is 0.837

Others:
// C[C@@H](c1ccc2nccn2c1)n1nnc2ncc(-c3cnn(C)c3)nc21 [Savolitinib] + Cc1c2c(nn1C)CSCc1cc(n(C)n1)CSc1cc(c3ccccc3c1)OCCCc1c(C(=O)O)n(C)c3c-2c(Cl)ccc13 [AZD5991] (first compound max 1 µM, 7x7, partner max 1 µM) : combination Emax value = 0.126

* * *

System: LB831-BLC (Bladder Carcinoma)
assay_details: combination Emax (second highest fraction inhibited in the dose matrix, 72 h); higher = more inhibition; extreme values may be limits of the assay
measured_metric: combination Emax
Lab note: write the figure by itself, no unit.

Lab note: Cc1c2c(nn1C)CSCc1cc(n(C)n1)CSc1cc(c3ccccc3c1)OCCCc1c(C(=O)O)n(C)c3c-2c(Cl)ccc13 [AZD5991] + CCN(CCO)CCCOc1ccc2c(Nc3cc(CC(=O)Nc4cccc(F)c4)[nH]n3)ncnc2c1 [AZD2811] (first compound max 1 µM, 7x7, partner max 1 µM) gave combination Emax of 0.444

Query compound follows.
Lab note: measured combination Emax of Cc1cc2ncnn2cc1Nc1ncc2c(n1)n(C1CCOCC1)c(=O)n2C [AZD7648] + C[C@@H]1COCCN1C2=NC(=NC(=C2)C3(CC3)[S@](=N)(=O)C)C4=C5C=CNC5=NC=C4 [AZD6738] (first compound max 10 µM, 7x7, partner max 10 µM) was 0.3

* * *

System: TCCSUP (Bladder Carcinoma)
assay_details: combination Emax (second highest fraction inhibited in the dose matrix, 72 h); higher = more inhibition; extreme values may be limits of the assay
measured_metric: combination Emax
The answer should be written as a number, with no unit following it.

// combination Emax lookup, compound = C=CCn1c(=O)c2cnc(Nc3ccc(N4CCN(C)CC4)cc3)nc2n1-c1cccc(C(C)(C)O)n1 [AZD1775] + C1CN(CCC1(C(=O)N[C@@H](CCO)C2=CC=C(C=C2)Cl)N)C3=NC=NC4=C3C=CN4 [Capivasertib] (first compound max 3 µM, partner max 3 µM) , result: 0.787

Continue with the next compound.
combination Emax for C[C@@H](c1ccc2nccn2c1)n1nnc2ncc(-c3cnn(C)c3)nc21 [Savolitinib] + CN(CC[C@H](CSC1=CC=CC=C1)NC2=C(C=C(C=C2)S(=O)(=O)NC(=O)C3=CC=C(C=C3)N4CCC(CC4)[C@H](C5=CC=CC=C5C6=CC=C(C=C6)Cl)O)S(=O)(=O)C(F)(F)F)CCO [AZD4320] (first compound max 1 µM, 7x7, partner max 1 µM) is 0.194

* * *

Measured combination Emax accompanies every entry in the list below.
Test system: DEL (T-Cell Non-Hodgkin's Lymphoma)
assay_details: combination Emax (second highest fraction inhibited in the dose matrix, 72 h); higher = more inhibition; extreme values may be limits of the assay
Returns: the value as a bare number; no unit string appended.

The compound listed as CN(C)CCCOc1ccc(-c2ccc3ncc4c(c3c2)n(C2CCOCC2)c(=O)n4C)cn1 [AZD0156] + C=CCn1c(=O)c2cnc(Nc3ccc(N4CCN(C)CC4)cc3)nc2n1-c1cccc(C(C)(C)O)n1 [AZD1775] (first compound max 1 µM, partner max 1 µM) has a reported combination Emax of 1

More entries:
Note to self: combination Emax recorded for Cn1cnc2c(F)c(Nc3ccc(Br)cc3Cl)c(C(=O)NOCCO)cc21 [Selumetinib] + C[C@@H]1COCCN1C2=NC(=NC(=C2)C3(CC3)[S@](=N)(=O)C)C4=C5C=CNC5=NC=C4 [AZD6738] (first compound max 10 µM, 7x7, partner max 10 µM) was 1

* * *

Tested on: CCRF-CEM (T-Lymphoblastic Leukemia);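 note: after 72 h of two-drug dosing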
assay_details: Bliss excess, mean over the matrix (fraction); higher = more synergy
Binary call on Bliss excess: True from -0.01 upward, False beneath that.

Input line: State whether the measured Bliss excess reaches -0.01, counting equality as reaching it, for Cc1cc2ncnn2cc1Nc1ncc2c(n1)n(C1CCOCC1)c(=O)n2C [AZD7648] + O=C(c1cc(Cc2n[nH]c(=O)c3ccccc23)ccc1F)N1CCN(C(=O)C2CC2)CC1 [Olaparib] (first compound max 10 µM, 7x7, partner max 10 µM)
Output line: False

***
Input line: Is the recorded value of Bliss excess equal to or greater than -0.01 for this compound? CC(=O)c1c(C)c2cnc(Nc3ccc(N4CCNCC4)cn3)nc2n(C2CCCC2)c1=O [Palbociclib] + CC1(C)CCC(CN2CCN(c3ccc(C(=O)NS(=O)(=O)c4ccc(NCC5CCOCC5)c([N+](=O)[O-])c4)c(Oc4cnc5[nH]ccc5c4)c3)CC2)=C(c2ccc(Cl)cc2)C1 [Venetoclax] (first compound max 10 µM, 7x7, partner max 1 µM)
Output line: True

Input line: Decide: Bliss excess of O=C(c1cc(Cc2n[nH]c(=O)c3ccccc23)ccc1F)N1CCN(C(=O)C2CC2)CC1 [Olaparib] + COc1nnc2ccc(N3CCC(c4ccc(OCCN5CCN(C)C(=O)[C@H]5C)cc4)CC3)nn12 [AZD5153] (first compound max 10 µM, 7x7, partner max 1 µM) >= -0.01?
Output line: True

Input line: Check if Bliss excess >= -0.01 (inclusive). Item: N#Cc1cnc(Nc2cc(NC[C@H]3CNCCO3)c(C(F)(F)F)cn2)cn1 [SRA737] + O=c1[nH]cc(F)c(=O)[nH]1 [5-Fluorouracil] (first compound max 10 µM, 7x7, partner max 20 µM)
Output line: True

Input line: Assess whether reported Bliss excess for CC1(C)CCC(CN2CCN(c3ccc(C(=O)NS(=O)(=O)c4ccc(NCC5CCOCC5)c([N+](=O)[O-])c4)c(Oc4cnc5[nH]ccc5c4)c3)CC2)=C(c2ccc(Cl)cc2)C1 [Venetoclax] + C[C@@H](Nc1cc(F)cc(F)c1)c1cc(C(=O)N(C)C)cc2c(=O)cc(N3CCOCC3)oc12 [AZD8186] (first compound max 1 µM, 7x7, partner max 3 µM) sits at -0.01 or higher.
Output line: True

Input line: Entry C=CCn1c(=O)c2cnc(Nc3ccc(N4CCN(C)CC4)cc3)nc2n1-c1cccc(C(C)(C)O)n1 [AZD1775] + CCc1c2c(nc3ccc(O)cc13)-c1cc3c(c(=O)n1C2)COC(=O)[C@]3(O)CC [SN-38] (first compound max 1 µM, partner max 0.3 µM) : is its Bliss excess no less than -0.01?
Output line: False

Input line: Could you please find out whether CC(=O)c1c(C)c2cnc(Nc3ccc(N4CCNCC4)cn3)nc2n(C2CCCC2)c1=O [Palbociclib] + Cc1c2c(nn1C)CSCc1cc(n(C)n1)CSc1cc(c3ccccc3c1)OCCCc1c(C(=O)O)n(C)c3c-2c(Cl)ccc13 [AZD5991] (first compound max 10 µM, 7x7, partner max 1 µM) has Bliss excess that meets -0.01 or exceeds it?
Output line: False
